Molecular target: T1, hFc-mC3d (mouse, UniProt P01027 1002-1303)
T1 construct: domain: C3d; also called hFc-mC3d fusion protein; not shown: human Fc of vector pCEP4-hFc
T1 sequence (P01027 other isoform, or with tags, fused parts or gaps): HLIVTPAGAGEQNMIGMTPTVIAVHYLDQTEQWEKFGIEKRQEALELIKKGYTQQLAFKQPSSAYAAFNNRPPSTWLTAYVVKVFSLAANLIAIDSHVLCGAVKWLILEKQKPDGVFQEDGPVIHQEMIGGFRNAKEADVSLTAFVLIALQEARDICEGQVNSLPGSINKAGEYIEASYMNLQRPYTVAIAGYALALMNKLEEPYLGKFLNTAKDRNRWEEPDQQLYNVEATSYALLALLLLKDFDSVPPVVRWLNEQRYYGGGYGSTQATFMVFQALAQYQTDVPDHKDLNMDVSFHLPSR
Assay: SPR (Biacore X100), hFc-mC3d captured by anti-human IgG CH2 mAb, Fab injected, 1:1 Langmuir
Please respond with reported pKd for every item in the list.
One number for each entry, as −log10 of the molar value.

Example entries and their recorded answers appear below.
d301 (Fab, V domains shown, Chimeric rabbit/human Fab, kappa, with 6xHis tag; also called Fab d301; d301 r/h-IgG1k) VH: QSLEESGGRLVTPGTPLTLTCTVSGFSLSTYTLGWVRQAPGKGLEYIGWIDSSGSAYYASWAKGRFTISKASSTTVDLKMAGLTTEDTATYFCASGNTGGDPLYYGMDPWGPGTLVTVSS VL: DPVLTQTPSSTSAAVGGTVTIKCQASQNIGRWLAWYQQKPGQPPKLLIYRASDLASGVPSRFKGSGSGTQFTLTISGVQREDAATYYCLGSYSSSDSAFGGGTEVVVK
7.64
3N02 (Fab, V domains shown, Chimeric rabbit/human Fab (rabbit variable domains, human kappa constant domain) with 6xHis tag in SPR, zymosan ELISA and flow cytometry; also called 3N02 r/h-IgG1k) VH: QKQLVESGGRLVTPGGSLTLTCTISGIDLNTYGMTWVRQAPGKGLEYIGIIVSSGNTYYANWAQGRFTISKTSTTVDLKMTSLTASDTATYFCARGLGRAYSSGYGMDGWGPGTLVTVSS VL: DPVLTQTPSSTSAAVGGTVTIKCQASQNIYTSLAWYQQKPGQPPKLLIYGASNLASGVPSRFKGSRSGTEYTLTISGVEREDAATYYCLGSYTQIDTTFGGGTKLEIK
7.01
3N07 (Fab, V domains shown, Chimeric rabbit/human Fab, kappa, with 6xHis tag; also called Fab 3N07; 3N07 r/h-IgG1k) VH: QSLEESGGRLVTPGTPLTLTCTVSGFSLSRYTMAWVRQAPGKGLEYIGWIDSSGSTYYASWAKGRFTISKTSSTTVDLKMTSLTTEDTATYFCASGNDGGDPLYYGMDPWGPGTLVTVSS VL: DGVMTQTPSSTSAAVGGTVTIKCQASQSIRSWLSWYQQKPGQPPKLLIYEASKLASGVPSRFKGSRSGTEYTLAISGVQREDAATYYCLGSIASDDTAFGAGTNVEIK
6.88

Q) Please give measured pKd of the following entry: 5S8 (Fab, V domains shown, Chimeric rabbit/human Fab, kappa, with 6xHis tag in SPR, zymosan and JeKo-1 assays; also called Fab 5S8; 5S8 r/h-IgG1k) VH: QSVEESGGRLVTPGTPLTLTCTVSGFSLSSYAMTWVRQAPGKGLEWIGVIGTSGMRYYANWAKGRFTISKTSTTVDLKITSPTTEDTATYFCARANFYVGNDESTDAFDPWGPGTLVTVSS VL: ALVMTQTPPSLSASVGETVRIRCLASEDIYNTISWYQQKPGKPPTLLIYGASNLKSGVPPRFSGSGSGTDYTLTIGGVQSEDAATYYCLGGYSYSSTGLTFGAGTKVEIK
A) 8.04
